target: Tyrosine-protein kinase JAK3 (Homo sapiens); experiment: Inhibition of JAK3 (unknown origin) preincubated for 10 mins followed by kinase substrate and ATP addition and measured for 30 mins by mobility shift assay
Sequence (P52333 whole entry): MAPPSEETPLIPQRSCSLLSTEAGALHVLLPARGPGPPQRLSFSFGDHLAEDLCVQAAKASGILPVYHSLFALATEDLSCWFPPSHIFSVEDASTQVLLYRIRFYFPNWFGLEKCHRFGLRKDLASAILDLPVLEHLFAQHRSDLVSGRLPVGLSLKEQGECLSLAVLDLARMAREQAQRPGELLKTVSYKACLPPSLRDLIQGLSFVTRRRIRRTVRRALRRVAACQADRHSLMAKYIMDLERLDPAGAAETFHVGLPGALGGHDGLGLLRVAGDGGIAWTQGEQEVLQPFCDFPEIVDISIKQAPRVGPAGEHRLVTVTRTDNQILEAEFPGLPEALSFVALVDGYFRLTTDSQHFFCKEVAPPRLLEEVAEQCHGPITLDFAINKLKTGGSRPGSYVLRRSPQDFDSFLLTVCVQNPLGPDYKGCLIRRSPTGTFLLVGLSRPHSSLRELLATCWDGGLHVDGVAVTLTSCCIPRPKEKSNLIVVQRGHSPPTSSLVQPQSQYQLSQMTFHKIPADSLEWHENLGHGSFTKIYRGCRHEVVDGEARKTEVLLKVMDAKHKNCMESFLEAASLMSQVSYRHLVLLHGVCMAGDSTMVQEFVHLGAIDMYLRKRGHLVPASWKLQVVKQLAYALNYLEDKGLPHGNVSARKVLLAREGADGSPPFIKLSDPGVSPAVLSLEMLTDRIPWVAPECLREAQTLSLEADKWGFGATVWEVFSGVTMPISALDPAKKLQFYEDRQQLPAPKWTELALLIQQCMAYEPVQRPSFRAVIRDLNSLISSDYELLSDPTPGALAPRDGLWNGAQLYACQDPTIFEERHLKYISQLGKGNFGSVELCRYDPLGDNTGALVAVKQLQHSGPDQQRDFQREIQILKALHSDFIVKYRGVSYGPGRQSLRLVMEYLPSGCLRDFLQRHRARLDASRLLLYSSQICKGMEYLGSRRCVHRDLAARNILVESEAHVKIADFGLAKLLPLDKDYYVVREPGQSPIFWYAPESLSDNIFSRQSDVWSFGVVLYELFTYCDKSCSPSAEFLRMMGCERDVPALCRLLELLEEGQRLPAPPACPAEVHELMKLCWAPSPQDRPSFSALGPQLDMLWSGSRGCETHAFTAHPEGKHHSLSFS
Listed here are compounds together with their documented IC50.
readout kind: IC50 (nM)

In [3]: df
Out[3]:
                                smiles_text  units_label  comparative_sign  endpoint_value
0  C=CC(=O)N1CCC[C@@H](n2nc(-c3ccc(NC(=O)c4ccc(C(F)(F)F)cc4)c4c3OCO4)c3c(N)ncnc32)C1           nM                 =              51
1  N#CCC(=O)N1CCC[C@@H](n2nc(-c3ccc(NC(=O)c4ccccc4)c4c3OCO4)c3c(N)ncnc32)C1           nM                 >           10000
2  C=CC(=O)N1CCC[C@@H](n2nc(-c3ccc(NC(=O)c4cccs4)c4c3OCO4)c3c(N)ncnc32)C1           nM                 =              61
3  C=CC(=O)N1CCC[C@@H](n2nc(-c3ccc(NC(=O)c4ccc(C#N)cc4)c4c3OCO4)c3c(N)ncnc32)C1           nM                 =             372
